# assay.text: chemical genetic growth profiling, strain panel (AID 1159580);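 also: tested at 20 µM; growth read once vehicle control cultures reached saturation at 30 °C; lower values mean less growth of the strain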
# measurement.context: S. cerevisiae deletion strains, growth OD, locus YDR392W, strain spt3
Out of some 5,500 compounds screened, about 2,000 (36%) were called active. Roughly 18% stayed inconclusive and do not appear here. Rule as the data show it: active = normalized growth mostly below about 0.91 (no sharp cut-off); inconclusive = no clear call, values can overlap the other calls; inactive = mostly above about 0.92. The list shows a part of the results.
A correct response names exactly one class from active, inactive

The examples below pair each entry with its known result.
# compound, classification
rows = [
    ("CCOC([O-])=Nc1c[n+](N2CCOCC2)no1", "inactive"),
    ("C[C@]12CCC(=O)C=C1CCC1C2[C@@H](O)C[C@@]2(C)C1CC[C@]2(O)C(=O)COC(=O)CCC(=O)O (stereo partly specified)", "inactive"),
    ("O=C(O)c1cc(=O)c2c(Cl)cc(Cl)cc2[nH]1", "inactive"),
]

Q: Check the results log: what was the call for CC[C@H]1CN2CCc3cc(OC)c(OC)cc3C2C[C@@H]1CC1NCCc2cc(OC)c(OC)cc21 (stereo partly specified) ?
Ans: inactive

Q: Check the results log: what was the call for CC1=CC2C(C(C)C)CCC(C)(O)C2CC1 (stereo unspecified) ?
Ans: active

Q: Check the results log: what was the call for COc1cc2c(cc1O)CCNC2C (stereo unspecified) ?
Ans: inactive

Q: Check the results log: what was the call for O=C1c2ccccc2C(=O)C1c1ccccc1 ?
Ans: inactive

Q: Check the results log: what was the call for COc1cc(/C=C/C(=O)N2CCC=CC2=O)cc(OC)c1OC ?
Ans: inactive

Q: Check the results log: what was the call for NC(=O)NO ?
Ans: inactive

Q: Check the results log: what was the call for O=c1oc2c(O)c(O)cc3c(=O)oc4c(O)c(O)cc1c4c23 ?
Ans: active

Q: Check the results log: what was the call for C[C@]12CCC(=O)C=C1CCC1C2C(=O)C[C@@]2(C)C1CC[C@]2(O)C(=O)CO (stereo partly specified) ?
Ans: inactive

Q: Check the results log: what was the call for Cc1cc(=O)n(-c2ccccc2)n1C ?
Ans: inactive

Q: Check the results log: what was the call for COc1ccc(C2C(=O)c3ccccc3C2=O)cc1 ?
Ans: inactive

Q: Check the results log: what was the call for COc1c2c(cc3c1OCO3)C13C=C[C@H](OC)CC1N(C2)CC3O (stereo partly specified) ?
Ans: inactive

Q: Check the results log: what was the call for CO[C@H]1C[C@H](O[C@H]2[C@H](C)[C@@H](OC3O[C@H](C)C[C@H](N(C)C)[C@H]3OC(C)=O)[C@@H](C)C[C@]3(CO3)C(=O)[C@H](C)[C@@H](OC(C)=O)[C@@H](C)[C@@H](C)OC(=O)[C@@H]2C)O[C@@H](C)[C@@H]1OC(C)=O (stereo partly specified) ?
Ans: inactive

Q: Check the results log: what was the call for CN(C)C(=N)N=C(N)N ?
Ans: inactive

Q: Check the results log: what was the call for C#C[C@]1(O)CCC2C3CCC4=Cc5oncc5C[C@]4(C)C3CC[C@@]21C (stereo partly specified) ?
Ans: active

Q: Check the results log: what was the call for O=C(O)c1cc(=O)c2cccc(O)c2[nH]1 ?
Ans: inactive

Q: Check the results log: what was the call for NC1C[C@H]1c1ccccc1 (stereo partly specified) ?
Ans: inactive

Q: Check the results log: what was the call for CC[C@@H](CO)NC(=O)[C@@H]1C=C2c3cccc4[nH]cc(c34)C[C@H]2N(C)C1 ?
Ans: inactive

Q: Check the results log: what was the call for COC(=O)C[C@H]1C(C)(C)[C@@H](O)[C@@H]2CC3=C4C=C(OC)O[C@@H](c5ccoc5)[C@]4(C)CCC3[C@@]1(C)C2=O (stereo partly specified) ?
Ans: inactive
